target: ATR kinase (full-length ATR) (Homo sapiens); construct: Assays were carried out at 25° C. in the presence of 5 nM full-length ATR; experiment: ATR Inhibition Assay (radioactive-phosphate incorporation); type: biochemical; details: Ki(app); 5 nM full-length ATR, 10 μM ATP, 800 μM target peptide, 25° C.; class symbols; read-out: ATR Inhibition Ki
Sequence (Q13535 whole entry): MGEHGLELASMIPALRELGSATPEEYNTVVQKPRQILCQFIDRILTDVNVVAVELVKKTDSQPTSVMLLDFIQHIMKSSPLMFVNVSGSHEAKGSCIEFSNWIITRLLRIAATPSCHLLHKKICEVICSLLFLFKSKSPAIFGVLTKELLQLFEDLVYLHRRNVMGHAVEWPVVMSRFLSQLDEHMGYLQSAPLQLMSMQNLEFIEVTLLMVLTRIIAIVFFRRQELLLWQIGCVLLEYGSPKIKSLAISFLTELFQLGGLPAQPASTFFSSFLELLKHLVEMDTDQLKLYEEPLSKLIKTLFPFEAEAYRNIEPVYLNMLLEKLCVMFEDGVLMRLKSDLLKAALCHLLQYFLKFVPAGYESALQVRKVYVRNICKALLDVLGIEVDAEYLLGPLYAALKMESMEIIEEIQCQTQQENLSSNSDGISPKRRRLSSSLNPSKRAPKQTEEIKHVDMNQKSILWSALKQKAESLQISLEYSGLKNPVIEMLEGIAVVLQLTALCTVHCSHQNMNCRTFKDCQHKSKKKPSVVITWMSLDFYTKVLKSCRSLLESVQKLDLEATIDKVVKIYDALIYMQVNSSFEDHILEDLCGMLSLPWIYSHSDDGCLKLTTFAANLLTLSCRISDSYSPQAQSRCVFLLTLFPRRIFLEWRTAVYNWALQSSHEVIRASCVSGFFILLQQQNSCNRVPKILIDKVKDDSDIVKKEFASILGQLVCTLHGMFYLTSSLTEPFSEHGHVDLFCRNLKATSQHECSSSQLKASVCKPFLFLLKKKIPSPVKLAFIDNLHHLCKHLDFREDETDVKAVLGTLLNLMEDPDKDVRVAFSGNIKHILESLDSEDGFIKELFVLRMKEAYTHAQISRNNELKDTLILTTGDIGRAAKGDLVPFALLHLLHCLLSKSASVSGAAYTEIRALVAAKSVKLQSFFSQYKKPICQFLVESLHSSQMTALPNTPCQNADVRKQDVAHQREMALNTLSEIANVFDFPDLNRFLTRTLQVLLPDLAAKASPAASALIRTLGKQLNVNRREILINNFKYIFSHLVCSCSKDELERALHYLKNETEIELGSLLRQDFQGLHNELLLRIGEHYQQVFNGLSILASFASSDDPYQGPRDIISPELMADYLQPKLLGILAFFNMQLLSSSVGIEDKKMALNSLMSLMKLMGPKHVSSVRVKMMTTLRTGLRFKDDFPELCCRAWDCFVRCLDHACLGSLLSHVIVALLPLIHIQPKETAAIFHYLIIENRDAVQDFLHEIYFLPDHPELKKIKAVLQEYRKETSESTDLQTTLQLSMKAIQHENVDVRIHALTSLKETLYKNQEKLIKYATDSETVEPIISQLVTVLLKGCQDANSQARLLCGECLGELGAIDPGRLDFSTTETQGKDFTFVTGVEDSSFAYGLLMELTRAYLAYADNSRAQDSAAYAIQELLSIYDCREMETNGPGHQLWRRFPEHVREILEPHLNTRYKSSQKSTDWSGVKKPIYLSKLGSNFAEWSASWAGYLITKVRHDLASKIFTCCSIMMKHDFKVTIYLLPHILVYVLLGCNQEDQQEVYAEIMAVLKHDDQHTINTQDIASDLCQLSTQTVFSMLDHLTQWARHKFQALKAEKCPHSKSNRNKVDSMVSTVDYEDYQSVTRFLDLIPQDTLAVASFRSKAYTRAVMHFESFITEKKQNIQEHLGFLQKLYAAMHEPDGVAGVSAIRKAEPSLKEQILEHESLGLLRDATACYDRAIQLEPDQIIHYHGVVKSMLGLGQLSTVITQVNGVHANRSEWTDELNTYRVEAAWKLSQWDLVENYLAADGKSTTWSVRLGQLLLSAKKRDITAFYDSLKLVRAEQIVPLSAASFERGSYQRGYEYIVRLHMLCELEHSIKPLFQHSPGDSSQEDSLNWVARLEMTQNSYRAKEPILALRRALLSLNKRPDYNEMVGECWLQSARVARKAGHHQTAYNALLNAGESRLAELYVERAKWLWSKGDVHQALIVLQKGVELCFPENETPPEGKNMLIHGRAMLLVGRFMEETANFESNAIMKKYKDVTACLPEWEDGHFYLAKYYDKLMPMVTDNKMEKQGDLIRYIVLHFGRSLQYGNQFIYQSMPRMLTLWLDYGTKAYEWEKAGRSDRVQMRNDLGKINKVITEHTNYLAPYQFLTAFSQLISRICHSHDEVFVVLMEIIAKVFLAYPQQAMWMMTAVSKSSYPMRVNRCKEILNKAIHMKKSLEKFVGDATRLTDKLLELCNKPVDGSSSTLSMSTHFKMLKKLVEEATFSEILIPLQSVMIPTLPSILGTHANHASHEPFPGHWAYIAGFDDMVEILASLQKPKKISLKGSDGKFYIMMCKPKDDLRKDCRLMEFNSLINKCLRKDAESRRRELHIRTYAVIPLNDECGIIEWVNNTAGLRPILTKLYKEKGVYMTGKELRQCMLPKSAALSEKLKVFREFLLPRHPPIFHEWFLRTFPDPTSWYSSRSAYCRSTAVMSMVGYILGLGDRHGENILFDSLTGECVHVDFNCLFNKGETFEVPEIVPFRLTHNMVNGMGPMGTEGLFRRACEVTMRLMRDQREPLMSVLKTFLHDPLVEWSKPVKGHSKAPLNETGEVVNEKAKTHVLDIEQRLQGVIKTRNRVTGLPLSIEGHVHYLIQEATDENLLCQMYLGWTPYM
outcome.measure: Ki

Some compounds with known Ki results, for comparison:
compound: CC(C)S(=O)(=O)c1ccc(-c2cnc3[nH]cc(C(=O)NC4(CO)CCCC4)c3n2)cc1 [Compound I-44]
outcome.measure: Ki
reported: 100 to 500 nM
--
compound: Cc1ccc(Cl)cc1CNC(=O)c1c[nH]c2ncc(-c3ccc(S(=O)(=O)C(C)C)cc3)nc12 [Compound I-67]
outcome.measure: Ki
reported: < 100 nM
--
compound: CC(C)S(=O)(=O)c1ccc(-c2cnc3[nH]cc(C(=O)NC(CCO)c4cccc(O)c4)c3n2)cc1 (centres unmarked) [Compound I-77]
outcome.measure: Ki
reported: 100 to 500 nM
--
compound: CC(C)S(=O)(=O)c1ccc(-c2cnc3[nH]cc(C(=O)NC[C@@H]4CCCC[C@H]4O)c3n2)cc1 [Compound I-33]
outcome.measure: Ki
reported: < 100 nM

Consider now this further compound.
Problem: Given the entry CC(C)S(=O)(=O)c1ccc(-c2cnc3[nH]cc(C(=O)N4CCN(C)CC4)c3n2)cc1 [Compound I-114] , report its measured Ki.
Result: 500 to 5000 nM

Source: patent US9096602B2
